Examples of substances with documented MIC follow.
System: Serratia marcescens
Assay: MIC against Gram-negative bacteria: Serratia marcescens
Type: cell-based
Settings: S. marcescens; 10 h cultivation at 37° C.
Numeric answer only, unit µg/mL assumed.

Q. So what's the measured MIC for this one? PRT1005 (LMDLCAQKPCPRNSHCLQTGPSFHCLCLQGWTGPLCN; listed as Homo sapiens)
A. 25

***
Q. So what's the measured MIC for this one? PRT922 (LQCRDGYEPCVNEGMCVTYHNGTGYCKCPEGFLGEYCQ; listed as Homo sapiens)
A. 12.5

Q. So what's the measured MIC for this one? PRT958 (DVDECSIGANPCEHLGRCVNTQGSFLCQCGRGYTGPRCE; listed as Homo sapiens)
A. 25

Q. So what's the measured MIC for this one? PRT945 (QLDECASNPCQHGATCSDFIGGYRCECVPGYQGVNCE; listed as Homo sapiens)
A. 25

====

Tested on: Proteus mirabilis
Test: MIC against Gram-negative bacteria: Proteus mirabilis
Assay type: cell-based
Details: Proteus mirabilis; 96-well plate, 5×10^5 CFU/mL, 37° C., 10 h
Examples of substances with documented MIC (μg/mL) P. mirabilis follow.
Numeric answer only, unit µg/mL assumed.

Q. So what's the measured MIC (μg/mL) P. mirabilis for this one? PRT16 (EKSPCQPNPCHGAAPCRVLPEGGAQCECPLGREGTFCQ; listed as Homo sapiens)
A. 50

Q. So what's the measured MIC (μg/mL) P. mirabilis for this one? PRT117 (DVDECALGRSPCAQGCTNTDGSFHCSCEEGYVLAGEDGTQCQ; listed as Homo sapiens)
A. 25

Q. So what's the measured MIC (μg/mL) P. mirabilis for this one? PRT122 (CAPCQGNGVPVLKGSRCDCICPVGSQGLACE; listed as Homo sapiens)
A. 12.5

====

Test system: Aeromonas hydrophila
Test: MIC against Gram-negative bacteria: Aeromonas hydrophila
Assay type: cell-based
Conditions: 96-well plate, 5×10^5 CFU/mL, 37° C., 10 h
endpoint: MIC against A. hydrophila (µg/mL)
Numeric answer only, unit µg/mL assumed.

# example entries with known answers
Q. So what's the measured MIC against A. hydrophila for this one? PRT483 (DCRAVYDRYSDDFCSGHGQCNCGRCDCKAGWYGKKCE; listed as Homo sapiens)
A. 25

Q. So what's the measured MIC against A. hydrophila for this one? PRT485 (QADPCKFLACGEFAQCVKNERTEEAECRCKPGYDSQGSL; listed as Homo sapiens)
A. 25

Q. So what's the measured MIC against A. hydrophila for this one? PRT496 (CSCNNHSDTCDPNTGKCLNCGDNTAGDHCDVCTSGYYGKVTGSASDCAL; listed as Homo sapiens)
A. 12.5

Okay, now this substance:
Q. So what's the measured MIC against A. hydrophila for this one? PRT505 (CECHVKGSHSAVCHLETGLCDCKPNVTGQQCDQCLHGYYGLDSGHGCRP; listed as Homo sapiens)
A. 12.5

====

Tested on: Proteus vulgaris
Assay: MIC against Gram-negative bacteria: Proteus vulgaris
Format: cell-based
Conditions: Proteus vulgaris; 5×10^5 CFU/mL; 10 h cultivation at 37° C.
Examples of substances with documented MIC against P. vulgaris follow.
Numeric answer only, unit µg/mL assumed.

# example entries with known answers
Q. So what's the measured MIC against P. vulgaris for this one? PRT1354 (RDRQCPRDCSNRGLCVDGQCVCEDGFTGPDCA; listed as Homo sapiens)
A. 12.5

Q. So what's the measured MIC against P. vulgaris for this one? PRT1408 (NEICSVDCGSHGVCMGGTCRCEEGWTGPACNQ; listed as Homo sapiens)
A. 12.5

Q. So what's the measured MIC against P. vulgaris for this one? PRT1446 (FLSPCVDDCGPYGQCKLLRTHNYLYAACECKAGWRGWGCT; listed as Homo sapiens)
A. 25

Q. So what's the measured MIC against P. vulgaris for this one? PRT1477 (DIDECSENMCAQLCVNYPGGYTCYCDGKKGFKLAQDQKSCE; listed as Homo sapiens)
A. 50

Q. So what's the measured MIC against P. vulgaris for this one? PRT1355 (AELSCPNDCHGQGRCVNGQCVCHEGFMGKDCK; listed as Homo sapiens)
A. 50

Q. So what's the measured MIC against P. vulgaris for this one? PRT1372 (GSRRCPGDCRGHGLCEDGVCVCDAGYSGEDC; listed as Homo sapiens)
A. 25

***
Q. So what's the measured MIC against P. vulgaris for this one? PRT1369 (ASGSCPDDCNDQGRCVRGRCVCFPGYTGPSC; listed as Homo sapiens)
A. 12.5

Q. So what's the measured MIC against P. vulgaris for this one? PRT1400 (VCSVDCGTHGVCIGGACRCEEGWTGAACD; listed as Homo sapiens)
A. 12.5

Q. So what's the measured MIC against P. vulgaris for this one? PRT1480 (PGPCDSQPCQNGGTCVPEGLDGYQCLCPLAFGGEANCA; listed as Homo sapiens)
A. 12.5

Q. So what's the measured MIC against P. vulgaris for this one? PRT1447 (GCGAGRWGPGCTKECPGCLHGGVCHDHDGECVCPPGFTGTRCE; listed as Homo sapiens)
A. 12.5

Q. So what's the measured MIC against P. vulgaris for this one? PRT1442 (DKDECAKDNGGCQHECVNTFGSYLCRCRNGYWLHENGHDCK; listed as Homo sapiens)
A. 12.5

Q. So what's the measured MIC against P. vulgaris for this one? PRT1406 (EADCIDPGCSNHGVCIHGECHCSPGWGGSNCE; listed as Homo sapiens)
A. 50

Q. So what's the measured MIC against P. vulgaris for this one? PRT1443 (NHMPCPENLNGYCIHGKCEFIYSTQKASCRCESGYTGQHCE; listed as Homo sapiens)
A. 25

Q. So what's the measured MIC against P. vulgaris for this one? PRT1352 (SEPECPGNCHLRGRCIDGQCICDDGFTGEDCS; listed as Homo sapiens)
A. 50

Q. So what's the measured MIC against P. vulgaris for this one? PRT1378 (AIQTCPGDCRGRGECHDGSCVCKDGYAGEDCG; listed as Homo sapiens)
A. 12.5

Q. So what's the measured MIC against P. vulgaris for this one? PRT1453 (DVDECAEPGLSHCHALATCVNVVGSYLCVCPAGYRGDGWHCE; listed as Homo sapiens)
A. 25

====

Tested on: Aeromonas hydrophila
Test: MIC against Gram-negative bacteria: Aeromonas hydrophila
Format: cell-based
Conditions: Aeromonas hydrophila; 5×10^5 CFU/mL; 10 h cultivation at 37° C.
endpoint: MIC against A. hydrophila
Please format your answer as a value with the unit trailing.

Q. So what's the measured MIC against A. hydrophila for this one? PRT1377 (PASACPGGCGPRELCRAGQCVCVEGFRGPDC; listed as Homo sapiens)
A. 50 µg/mL

Q. So what's the measured MIC against A. hydrophila for this one? PRT1365 (SQLRCPNDCHSRGRCVEGKCVCEQGFKGYDCS; listed as Homo sapiens)
A. 12.5 µg/mL

Q. So what's the measured MIC against A. hydrophila for this one? PRT1360 (NKPLCLNNCYNRGRCVENECVCDEGFTGEDCS; listed as Homo sapiens)
A. 50 µg/mL

Q. So what's the measured MIC against A. hydrophila for this one? PRT1363 (SEKRCPADCHNRGRCVDGRCECDDGFTGADCG; listed as Homo sapiens)
A. 12.5 µg/mL

Q. So what's the measured MIC against A. hydrophila for this one? PRT1407 (LKTMCPDQCSGHGTYLQESGSCTCDPNWTGPDCS; listed as Homo sapiens)
A. 50 µg/mL

***
Q. So what's the measured MIC against A. hydrophila for this one? PRT1368 (EKRCPGDCSGHGFCDTGECYCEEGFTGLDCA; listed as Homo sapiens)
A. 25 µg/mL

====

Examples of substances with documented MIC against E. coli BL21 follow.
Test system: E. coli BL21
Experiment: MIC against Gram-negative bacteria: E. coli BL21
Assay type: cell-based
Conditions: 96-well plate, 5×10^5 CFU/mL, 37° C., 10 h
Please format your answer as a value with the unit trailing.

Q. So what's the measured MIC against E. coli BL21 for this one? PRT474 (QADPCQPNPCEHGGDCLVHGSTFTCSCLAPFSGNKCQ; listed as Homo sapiens)
A. 25 µg/mL

Q. So what's the measured MIC against E. coli BL21 for this one? PRT449 (FLCRCHQGYELHRDGFSCSDIDE; listed as Homo sapiens)
A. 12.5 µg/mL

Q. So what's the measured MIC against E. coli BL21 for this one? PRT530 (CSCDPEHADGCEQGSGRCHCKPNFHGDNCEKCAIGYYNFPFCLR; listed as Homo sapiens)
A. 12.5 µg/mL

Q. So what's the measured MIC against E. coli BL21 for this one? PRT517 (CQCFGHAESCDDVTGECLNCKDHTGGPYCDKCLPGFYGEPTKGTSEDCQP; listed as Homo sapiens)
A. 12.5 µg/mL

Q. So what's the measured MIC against E. coli BL21 for this one? PRT497 (CACPHSPPASFSPTCVLEGDHDFRCDACLLGYEGKHCERCSSSYYGNPQTPGGSCQK; listed as Homo sapiens)
A. 25 µg/mL

***
Q. So what's the measured MIC against E. coli BL21 for this one? PRT520 (CRCNAGGSFSEVCHSQTGQCECRANVQGQRCDKCKAGTFGLQSARGCVP; listed as Homo sapiens)
A. 12.5 µg/mL

Q. So what's the measured MIC against E. coli BL21 for this one? PRT502 (CECHGHAAECNVHGVCIACAHNTTGVHCEQCLPGFYGEPSRGTPGDCQP; listed as Homo sapiens)
A. 12.5 µg/mL
